System: PF3D7_0420300 AP2 domain 1 (GST-tagged)
Experiment: gcPBM binding intensity (ln(normalized median fluorescence intensity)); higher = stronger DNA binding
The full ranking holds about 25,000 sequences; the median of “ln(normalized median fluorescence intensity)” is about 9.3, and the highest 2% start at about 10. This excerpt belongs to a sample that is enriched for the highest values.
endpointName: gcPBM binding intensity (ln)
One number for each entry.

Batch request: gcPBM binding intensity (ln) for each of the following sequences.
1. AAAACACGCGGACACACACACACACGCCCACATATA [CACACA_site7105]
2. AACACGCGCGGACACACACACACACCCACATATATA [CACACA_site5252]
3. AAACCGTGGGAGCACACACACACACCCACCCATATA [CACACA_site332]

# output
10.4
10.4
10.2

Batch request: gcPBM binding intensity (ln) for each of the following sequences.
1. AGAAAAAAACAACATGCACACGCACCCACAAAAAAA [CACACA_site7908]
2. AATTAACCGTGACACACACACATATAAATATAAATA [CACACA_site7790]
3. AAAAAAAAAAAAAAAACACACACATATATATATATA [CACACA_site8571]
4. AAACCGTGGGAGCACACACACACACCGACACATATA [CACACA_site4338]
5. ATTACATACACGCGCACACACAAAAAAAAAAAAAAA [CACACA_site1334]
6. AAAAAACACGGACACACACACATATACATACATACA [CACACA_site5470]

# output
1: 9.71; 2: 9.86; 3: 9.51; 4: 10.1; 5: 9.57; 6: 10.1

---

I'd be grateful if you could share measured gcPBM binding intensity (ln) for these entries.
System: PF3D7_0420300 AP2 domain 1 (GST-tagged)
Assay: gcPBM binding intensity (ln(normalized median fluorescence intensity)); higher = stronger DNA binding
The full ranking holds about 25,000 sequences; the median of “ln(normalized median fluorescence intensity)” is about 9.3, and the highest 2% start at about 10. For the sample, the highest values were picked, then their nearest neighbours and some sequences at random.
Give bare numbers.

Solved cases below.
AAAAAAAAAAAACACACACACACAAATACATACACA [CACACA_site706] :: 10.2
CATAAATACAGATATACACACATATATATATATATA [CACACA_site4528] :: 9.45
TACAAAAATATATAAACACACAAATATAATATATAT [CACACA_site2942] :: 9.74
AAAATTTTCTTTTTATGTACACATAATTTTACCGGA [XGTACX_site5276] :: 9.18
AAAATTATTTAGTAAGTGCAAAAAAAAAAAAAAAAA :: 8.78

Batch request: gcPBM binding intensity (ln) for each of the following sequences.
1. AAAAAAAAAAAAAAAAAAAAATTTCAATTATATTGA [GTGCAC_negctrl_site642]
2. AAATTCTTAACCCAACGTACATATAATAAATTCTTA [XGTACX_site8538]
3. TTTATTTATTAATACACACACACACGCCCACAAAAT [CACACA_site6253]
4. AAAGGAGGGAATTTTTCTAGGTGTGGAGTGCTACTC [XGTACX_negctrl_site63]
5. GTAAAATTTACATAGAGTACTTATATTTTTTTCTGC [XGTACX_site3414]
6. TCATTTCACAAACACACACACACAATATATTTCCTT [CACACA_site3905]
7. AAAAAAAAAAAATACACACAAACACAAATTAAATAA [CACACA_site3809]

# output
1: 8.91; 2: 9.1; 3: 10.2; 4: 9.44; 5: 8.96; 6: 10.1; 7: 9.88

Batch request: gcPBM binding intensity (ln) for each of the following sequences.
1. CACAAAAATAAATATAAACACACAATAAATAAATAA [CACACA_site8197]
2. ACAAATAAATAAAAAACACACACAAATAAATAAATA [CACACA_site8708]
3. AAAAAAAAAAAAAACACACACACAAAATAAACAAAC [CACACA_site2720]
4. TATGAAGAAAAGAATTGTACGATGTTTATTTTGTAT [XGTACX_site8614]
5. ATTATTAAGTTTCACAAGAACATTGTTAACAATTTT [CACACA_negctrl_site1128]
6. TAAATGTAAAACGAAATGCACACTATGGAAAATATA [CACACA_site724]

# output
1: 9.75; 2: 10.1; 3: 10.3; 4: 9.22; 5: 9; 6: 9.66

Batch request: gcPBM binding intensity (ln) for each of the following sequences.
1. TATATAAACACGTACACACACATATAGGTATTTATA [CACACA_site7615]
2. TTTAAAAAAATTCATGCACACGAAATAAAAAGCACC [CACACA_site8214]
3. TACAGATACAGATACACACACACACCGAAATAAATA [CACACA_site4865]
4. ATTTTTTTCATAGACACACACAATATATCTGTTTCC [CACACA_site3023]
5. CAAAAAATTCAACACACACACACACCGATAAATAAA [CACACA_site8330]

# output
[9.97, 9.71, 10.3, 9.83, 10.2]
